target.under.test: human KHK-A (Homo sapiens (Human))
Sequence (P50053 other isoform, or with tags, fused parts or gaps): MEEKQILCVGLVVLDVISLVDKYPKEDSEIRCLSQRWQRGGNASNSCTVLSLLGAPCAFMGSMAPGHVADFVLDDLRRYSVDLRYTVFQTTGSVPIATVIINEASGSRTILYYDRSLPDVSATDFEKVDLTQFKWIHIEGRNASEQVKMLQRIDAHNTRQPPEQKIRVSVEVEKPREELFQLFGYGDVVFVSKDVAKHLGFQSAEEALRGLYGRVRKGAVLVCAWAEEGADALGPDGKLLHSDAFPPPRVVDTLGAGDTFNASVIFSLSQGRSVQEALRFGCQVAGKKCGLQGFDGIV
test.name: KHK Biochemical Assay (IC50), ADP-Glo, KHK-A
condition.label: average of at least two separate assays
pIC50: −log10 of the molar value.
value.type: pIC50

compound: C[C@H]1CCN1c1nc2c(c(-c3ccc(CNS(C)(=O)=O)s3)n1)CCC2
target.under.test: human KHK-A (Homo sapiens (Human))
experimental.value: 7.96

compound: CC1OC[C@@]2(COc3cc(-c4nc(N5C[C@@H](O)[C@@H]5C)nc5c4CCC5(F)F)ccc32)NC1=O (single isomer, unassigned)
target.under.test: human KHK-A (Homo sapiens (Human))
experimental.value: 8.11

compound: C[C@H]1CCN1c1nc(-c2cccc(N=[S@](C)(N)=O)c2)c2c(n1)C(F)(F)CC2 (single isomer, unassigned)
target.under.test: human KHK-A (Homo sapiens (Human))
experimental.value: 8.16

P. C[C@H]1[C@H](O)CN1c1nc(-c2ccc3c(c2)OCCNC3)c2c(n1)C(F)(F)CC2
Q. C[C@H]1[C@H](O)CN1c1nc(-c2ccc3c(c2)CC[C@]32NC(=O)N(C)C2=O)c2c(n1)C(F)(F)CC2
[in] Given the two records P and Q , choose the one whose pIC50 value is lower. Write down the label of the entry you select.
[out] Q
(Q: 7.97, P: 8.22)

Source of measurements: patent US12410160B2
